Target: Z-AAT (Homo sapiens, UniProt P01009, E366K)
Sequence (P01009 25-418 E366K): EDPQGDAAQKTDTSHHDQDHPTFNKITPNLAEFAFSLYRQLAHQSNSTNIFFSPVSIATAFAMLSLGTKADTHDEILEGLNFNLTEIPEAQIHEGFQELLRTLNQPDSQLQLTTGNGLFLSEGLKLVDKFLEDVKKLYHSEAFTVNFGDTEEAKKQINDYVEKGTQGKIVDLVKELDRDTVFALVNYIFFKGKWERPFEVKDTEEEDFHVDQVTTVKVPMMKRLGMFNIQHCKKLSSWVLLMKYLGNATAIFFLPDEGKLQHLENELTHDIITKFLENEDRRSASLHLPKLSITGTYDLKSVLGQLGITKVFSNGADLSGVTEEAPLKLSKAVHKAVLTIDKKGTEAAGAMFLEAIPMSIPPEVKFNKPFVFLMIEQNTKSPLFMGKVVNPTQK
Assay: AAT Function Assay (MSD Assay NL20-SI Cell Line)
Details: NL20 human bronchial epithelial cells expressing human Z-AAT; functionally active AAT measured as complex with hNE (MSD); read-out: NL20 Functional EC50
pEC50: −log10 of the molar value.
Test Readout: pEC50

Example compounds with recorded pEC50:
INSERT INTO results (compound, val) VALUES
  ('COc1cc(-n2c(C3CCCOC3)c([C@H]3C[C@H](C(=O)O)C3)c3cc4[nH]ncc4cc32)ccc1F (stereo partly shown)', '< 5.52'),
  ('COc1cc(-n2c(C(C)C)c([C@H]3CC[C@H](C(=O)O)CC3)c3cc4[nH]ncc4cc32)ccc1F', '> 5.94');

Request: I would be grateful if you could share the reported pEC50 for `CO[C@H](Cc1c(C(C)C)n(-c2ccc(F)c(F)c2)c2cc3cn[nH]c3cc12)C(=O)O` .
Response: < 5.52

Request: Try the compound `CC(C)(CC#N)c1c([C@H]2CC[C@@H](C(=O)O)CC2)c2cc3[nH]ncc3cc2n1-c1ccc(F)c(F)c1`
Response: < 5.52

Request: Try the compound `Cc1cc(-n2c(C(C)C)c([C@H]3CC[C@H](C(=O)O)CC3)c3nc4[nH]ncc4cc32)ccc1F`
Response: > 5.94

Request: Try the compound COc1cc(-n2c(C(C)C)c(CC(C)C(=O)O)c3cc4[nH]ncc4cc32)ccc1F (stereo not shown)
Response: > 5.94

Request: Try the compound CC(C)c1c(C2COC(C(=O)O)C2)c2cc3[nH]ncc3cc2n1-c1ccc(F)c(F)c1 (stereo not shown)
Response: < 5.52

Request: Try the compound COc1cc(-n2c(C3CCCOC3)c([C@H]3C[C@](C)(C(=O)O)C3)c3cc4[nH]ncc4cc32)ccc1F (stereo partly shown)
Response: 5.52 to 5.94

Request: Try the compound `Cc1cc(-n2c(C(C)(C)CC#N)c([C@H]3CC[C@@H](C(=O)O)CC3)c3nc4[nH]ncc4cc32)ccc1F`
Response: < 5.52

Request: Try the compound `COc1cc(F)cc(-n2c(C(C)C)c([C@H]3CC[C@H](C(=O)O)CC3)c3nc4[nH]ncc4cc32)c1`
Response: 5.52 to 5.94

Request: Try the compound `CC(C)c1c([C@H]2CC[C@H](C(=O)O)CC2)c2nc3[nH]ncc3cc2n1-c1ccc(F)cc1`
Response: > 5.94

Request: Try the compound `[2H]c1c([2H])c(-n2c(C(C)C)c(CCC(=O)O[C@@H]3O[C@H](C(=O)O)[C@@H](O)[C@H](O)[C@H]3O)c3cc4[nH]ncc4cc32)c([2H])c([2H])c1F`
Response: < 5.52

Request: Try the compound `CC(C)c1c([C@H]2CC[C@H](C(=O)O)CC2)c2nc3[nH]ncc3cc2n1-c1cc(F)cc(F)c1`
Response: 5.52 to 5.94

Request: Try the compound `CC(C)c1c(C[C@H](O)C(=O)O)c2cc3[nH]ncc3cc2n1-c1ccc(F)c(F)c1`
Response: < 5.52

Request: Try the compound `COc1cc(-n2c(C(C)C)c(CCC(=O)O)c3cc4[nH]ncc4cc32)ccc1F`
Response: 5.52 to 5.94

Request: Try the compound `CC(C)c1c([C@H]2CC[C@H](C(=O)O)CC2)c2nc3[nH]ncc3cc2n1-c1ccc(F)c(Cl)c1`
Response: > 5.94
